Molecular target: Cytochrome P450 2C9 (Homo sapiens)
Assay: blockers of cytochrome P450 2C9 activity – biochemical, luminescence, ADME assay, primary screen (AID 777)
Conditions: CYP2C9 Supersomes, luciferin-H conversion, at 5 µM
Hit rate of the full screen: of about 96,000 compounds, about 19,000 (20%) were called active.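 How the source made its calls: active means blocking of liver enzyme CYP2C9 beyond about 50% at 5 µM (limit read from the data); inactive means the rest.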 Not all results are given here.
Outcome codes: Yes (active), No (inactive)

compound	qualitative.label
CC1Cc2ccccc2N1CC(=O)Nc1ccc2c(c1)OC(F)(F)O2 (stereo unspecified)	Yes
O=P(O)(CP(=O)(c1ccccc1)c1ccccc1)c1ccccc1	No
O=C(CN1C(=O)COc2ccccc21)Nc1ccc(F)cc1	No
Cc1noc(C)c1C(=O)N1CCOCC1	No
Cc1cnc(NC(=O)C2CCCC2)s1	No
CC1(C)Cc2c(sc3nc4n(c(=N)c23)CCCCC4)CO1	No
COc1cccc(NC(=O)C2c3cc(OC)c(OC)cc3C(=O)N(C)C2c2cccnc2)c1 (stereo unspecified)	No
C=C(C)Cn1c(C)cc(C)c(S(=O)(=O)c2ccccc2C)c1=O	No
Cc1ccc(Oc2ccc3c(c2)C(=O)N(c2cccc4cccnc24)C3=O)cc1	No
O=C1c2cccc3cc(Br)cc(c23)C(=O)N1Nc1ccccc1	No
CC(C)C(=O)Nc1c(C(=O)c2ccc(F)cc2)oc2ccccc12	No

###

Quick list: inhibition per entry.
Biological target: Cytochrome P450 2C9 (Homo sapiens) (UniProt P11712)
Sequence (P11712 whole entry, looked up): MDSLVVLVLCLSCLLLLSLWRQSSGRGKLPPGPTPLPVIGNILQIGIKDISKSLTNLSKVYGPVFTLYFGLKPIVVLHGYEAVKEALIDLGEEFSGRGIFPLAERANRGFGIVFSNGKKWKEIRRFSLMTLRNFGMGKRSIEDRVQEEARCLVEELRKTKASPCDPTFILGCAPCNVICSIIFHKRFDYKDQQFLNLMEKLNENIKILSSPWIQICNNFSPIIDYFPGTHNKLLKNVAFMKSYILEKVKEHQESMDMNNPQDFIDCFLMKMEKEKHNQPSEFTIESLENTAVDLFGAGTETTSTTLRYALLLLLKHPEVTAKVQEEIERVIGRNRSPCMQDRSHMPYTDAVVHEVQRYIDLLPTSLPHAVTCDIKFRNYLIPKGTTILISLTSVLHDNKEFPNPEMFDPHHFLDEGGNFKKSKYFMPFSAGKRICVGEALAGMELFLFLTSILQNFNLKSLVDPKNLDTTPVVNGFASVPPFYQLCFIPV
Test: blockers of cytochrome P450 2C9 activity – biochemical, luminescence, ADME assay, primary screen (AID 777)
Conditions: CYP2C9 Supersomes, luciferin-H conversion, at 5 µM, stronger effect = higher value
About 19,000 (20%) of roughly 96,000 compounds were called active. The list is a sample of the results.

compound	inhibition [%]
O=C(Nc1nccs1)C1CCN(S(=O)(=O)c2ccc(Cl)c(C(F)(F)F)c2)CC1	-45.5
CCOc1ccc(NC(=O)CN(C)CC(=O)Nc2cccc(Cl)c2C)cc1OCC	56.1
COc1ccc(O)c(C=Nc2cc(C)on2)c1	-5.4
O=C(Cc1ccc2c(c1)CCCC2)Nc1ccccc1Cl	13.7
CN(C)S(=O)(=O)c1ccc(Oc2ccc(S(=O)(=O)N(C)C)cc2)cc1	13.3
COc1cccc(C2/C(=C(/O)c3ccc(F)cc3)C(=O)C(=O)N2CCN(C)C)c1 (configuration not stated)	-22.1
Cc1cccc(C)c1NC(=O)CCCSc1nnc(-c2ccco2)n1-c1ccccc1	25.6
O=CN1CCN(C2CC(=O)N(c3ccc4c(c3)OCO4)C2=O)CC1 (configuration not stated)	-50.5
Cc1cc(N2C(=O)C(=O)/C(=C(/O)c3ccc(Cl)cc3)C2c2cccc(Br)c2)no1 (configuration not stated)	61.1
Cc1ccc(S(=O)(=O)N/N=C\c2cc3c(cc2[N+](=O)[O-])OCO3)cc1	-13
COc1ccc(C(=O)N(CCN2CCOCC2)CC(=O)NC2CCCC2)cc1OC	-13.4
Cc1ccc(N2C(=O)CC(NCc3ccc4c(c3)OCO4)C2=O)cc1Cl (configuration not stated)	76.5
Cn1c2c(c(=O)n(C)c1=O)CN(Cc1ccco1)CN2	-11.6
COc1ccccc1C1/C(=C(/O)c2ccc(OC(C)C)cc2)C(=O)C(=O)N1c1cc(C)on1 (configuration not stated)	-0.1
CC12CCC(C(=O)N3CCN(c4ncccn4)CC3)(c3nc4ccccc4nc31)C2(C)C (configuration not stated)	51.5
COc1ccc(OC)c(C(=O)c2ccc(C(=O)O)cc2)c1	9.5
Cc1ccc(NC(=O)C2CCCN(S(=O)(=O)c3c(C)noc3C)C2)c(C)c1 (configuration not stated)	8.4
c1ccc(-c2ccnc3nc(-n4cccc4)nn23)cc1	6.8
Cc1noc(C)c1S(=O)(=O)N1CCCC(C(=O)Nc2nccs2)C1 (configuration not stated)	56.5
COc1ccccc1CCNC(=O)c1cnccn1	-35.8
Cc1nnc(SCC(=O)Nc2ncc3c(n2)CC(C)(C)CC3=O)s1	22.5
CC(=O)c1ccc(OCCN2CCOCC2)cc1	9.9
